Test system: Staphylococcus aureus
protocol.details: Antimicrobial activity against Staphylococcus aureus ATCC 6538 after 6 hrs
Assay type: functional
applied.conditions: ATCC 6538, 6 h
Mark fulfilled only when MIC stays strictly below 300 µg/mL. Values equal to the cut-off are not fulfilled.

Solved cases below.
- molecular.string: "COc1cc(-c2cc3ccccc3[nH]2)cc(OC)c1OC"
  category.label: "not fulfilled"
- molecular.string: "COc1ccc2[nH]c(-c3ccccc3)cc2c1"
  category.label: "fulfilled"
- molecular.string: "COc1ccc(-c2c[nH]c3ccccc23)cc1"
  category.label: "not fulfilled"
- molecular.string: "COc1ccc2[nH]c(-c3cc(OC)c(OC)c(OC)c3)cc2c1"
  category.label: "not fulfilled"
- molecular.string: "COc1cc(-c2c[nH]c3ccccc23)c(OC)cc1Br"
  category.label: "fulfilled"

I'd appreciate it if you could check whether COc1ccc2[nH]cc(-c3cc(OC)c(OC)c(OC)c3)c2c1 has MIC smaller than 300 µg/mL. not fulfilled

Proceed to COc1ccc2[nH]cc(-c3ccccc3C)c2c1 fulfilled

Please do the same for c1ccc(-c2c[nH]c3ccccc23)cc1 as well. fulfilled

Lookup COc1ccc2[nH]c(-c3ccccc3C)cc2c1 fulfilled

Next molecule up: COc1ccc2[nH]cc(-c3ccccc3)c2c1 fulfilled

Moving on to c1ccc(-c2cc3ccccc3[nH]2)cc1 not fulfilled

Another molecule to check: COc1ccc(-c2cc3cc(OC)ccc3[nH]2)cc1 not fulfilled

Reference for the values: ChEMBL document CHEMBL1155357
